- Tested on: UACC-257 melanoma
- Assay explanation: NCI-60 one-dose screen, 48 h (100 = growth as untreated, 0 = no growth, -100 = all killed)
- Setup conditions: 10 µM unless noted
Compounds without any hit were thinned out: in the full panel of roughly 83,000, 20% have a hit. Activity calls are given as the source filed them. Rule for the calls: active = growth percent below 10; inactive = the rest.
Field: growth. Provide a value for each of the compounds that follow.

Compound	growth
CC[C@]12C=CCN3CC[C@@]4(c5ccc(OC)cc5N(C)[C@H]4[C@@](O)(C(=O)OC)[C@@H]1OC(=O)CCCN1CCN(CCCC(=O)O[C@@H]4[C@]5(CC)C=CCN6CC[C@@]7(c8ccc(OC)cc8N(C)[C@H]7[C@@]4(O)C(=O)OC)[C@@H]65)CC1)[C@@H]32	-87.6% (active)
O=C(CF)N(O)c1ccc(/C=C/c2ccccc2)cc1	-7.11% (active)
CC(C)N=C(NC(C)C)N1CC1	105% (inactive)
C[C@]12CCC(=O)CC1CC[C@@H]1C2CC[C@@]2(C)C1CC[C@@H]2OC(=O)CC[Se][Se]CCC(=O)O[C@H]1CCC2[C@@H]3CCC4CC(=O)CC[C@]4(C)C3CC[C@@]21C (some centres not stated)	90.6% (inactive)
O=C(CCl)NCNC(=O)CCl	76.5% (inactive)

Hi! Can you tell me growth for each of these compounds?
1. CCOc1cc(/C=N\Nc2nnc(C)n2N)c(C)cc1N(CCCl)CCCl
2. C=CCC1(CC)C(=O)NC(=S)NC1=O

-5.96% (active)
105% (inactive)

---

- Test system: SK-MEL-28 melanoma
- Assay explanation: NCI-60 one-dose screen, 48 h
- Setup conditions: 10 µM unless noted
- Experimental: Growth inhibition of the SK-MEL-28 human tumor cell line is measured as a screen for anti-cancer activity. Cells are grown in 96 well plates and exposed to the test compound for 48 hours. Compounds are tested at a single concentration, which is 10^-5 M for most compounds. The reported endpoint is percent growth (GI% or GIPRCNT), where numbers from 0 - 100% represent growth inhibition, and numbers from -100% - 0 represent cell death. For example, a value of 40 represents 60% growth inhibition. […]
The panel holds about 83,000 compounds, 20% with a hit somewhere; the sample as a whole holds those more often. Calls of active or inactive are those of the source. How the source made its calls: active means growth percent below 10; inactive means the rest.
Select the correct class. Options are 1.0 (active), 0.0 (inactive) and nothing else.

Known results for molecules:
Molecule	Test system	Qualitative label
CCCC(C)(C)c1ccc2c(c1)OC(C)(C)[C@@H]1CC=C(C)C[C@@H]21	SK-MEL-28 melanoma	0.0
CC(=O)[O][Hg][c]1nc2c(c(=O)n(C)c(=O)n2C)n1C	SK-MEL-28 melanoma	0.0
CCC1CN1P(=O)(OCCOC)N1CC1CC (configuration not stated)	SK-MEL-28 melanoma	0.0
CCOC(=O)/C(C#N)=C/c1ccc(N(CCCl)CCCl)cc1	SK-MEL-28 melanoma	0.0
CNC(=O)O/N=C(/C)c1ccc(Cl)cc1	SK-MEL-28 melanoma	0.0
CC1=C(SCCC(=O)OCC(=O)NCCC[Te]c2ccccc2)C(=O)c2ccccc2C1=O	SK-MEL-28 melanoma	1.0

Please let me know the test result on file for `CCCCNCCc1ccccn1` .
0.0

How did this test come out for `CC(C)[C@]12O[C@H]1[C@@H]1O[C@]13[C@]1(O[C@H]1C[C@H]1C4=C(CC[C@@]13C)C(=O)OC4)[C@@H]2OC(=O)OC(C)(C)C` ?
1.0

GET /call?item= `O=S(=O)(c1ccc(Cl)cc1)C(Cl)(Cl)Cl` returns the recorded outcome of this test.
0.0
